# target-system: rat P2X3 receptor (Rattus norvegicus, UniProt P49654)
# Construct: expressed in transfected cells; host or cells: CHO-K1
# Sequence (P49654 whole entry): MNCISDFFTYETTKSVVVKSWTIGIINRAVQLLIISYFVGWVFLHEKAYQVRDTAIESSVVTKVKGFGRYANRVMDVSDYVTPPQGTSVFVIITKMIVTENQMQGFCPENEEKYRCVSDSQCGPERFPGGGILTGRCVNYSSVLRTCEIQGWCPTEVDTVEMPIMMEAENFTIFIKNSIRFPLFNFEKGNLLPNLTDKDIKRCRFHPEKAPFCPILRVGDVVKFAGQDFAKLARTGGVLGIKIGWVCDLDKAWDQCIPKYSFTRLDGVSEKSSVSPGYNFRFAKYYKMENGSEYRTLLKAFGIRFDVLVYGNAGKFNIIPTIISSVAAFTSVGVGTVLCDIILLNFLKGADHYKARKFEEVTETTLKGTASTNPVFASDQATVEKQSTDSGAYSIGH
# procedure-summary: P2X3/P2X2/3 FLIPR (Fluorometric Imaging Plate Reader) Assay, P2X3
# Type: cell-based
# settings: CHO-K1 cells transfected with rat P2X3; agonist α,β-meATP 1 μM; Table 1; read-out: P2X3 pKi (converted)
readout-name: Ki (µM)

Completed entries (count: 3):
Cc1ccc(-c2cc(C(=O)NCc3cnc(C)cn3)cc(-n3ncnc3C(C)N(C)C)c2)cc1 (centres unmarked) | 0.00525
Cc1cnc(CNC(=O)c2cc(-c3ccc(Cl)cn3)cc(-n3ncnc3CC(C)C)c2)cn1 | 0.00417
Cc1ccc(-c2cc(C(=O)NCc3ncc(C)cn3)cc(-n3ncnc3C(F)(F)F)c2)nc1 | 0.0166

P: Cc1ccc(-c2cc(-n3ncnc3C(F)(F)F)cc(C(=O)NCc3cnc(C)nc3)c2F)nc1
Q: Cc1ccc(-c2cc(C(=O)N[C@@H](C)CO)cc(-n3cnnc3C(C)C)c2)cc1
Which of the two items, P and Q , has the greater recorded Ki? When you have decided, please share the label of that item.
Q
(Q: 0.977 µM, P: 0.00363 µM)

I: Cc1ccc(-c2cc(C(=O)NCc3cnc(C)cn3)cc(-n3ncnc3C(C)C)c2)cc1
II: CCc1ncnn1-c1cc(C(=O)N[C@@H](C)CO)cc(-c2ccc(C)cn2)c1
Which of the two items, I and II , has the greater recorded Ki? When you have decided, please share the label of that item.
II
